Attribution: patent US20260242391A1

assay_explanation: in vitro
condition_context: human
reported_property: IC50 (µM)
API: value field is a number in µM; no unit string.

The cases that follow already have their IC50 on record.
compound | display_unit | IC50
CC(O[C@H]1O[C@@H]2O[C@@]3(C)CC[C@H]4[C@H](C)CC[C@@H]([C@H]1C)[C@@]24OO3)c1ccc(C(=O)O)cc1Cl (stereo partly drawn) | µM | 1.5
C[C@H]1[C@@H](Nc2cccc(F)c2)O[C@@H]2O[C@@]3(C)CC[C@H]4[C@H](C)CC[C@@H]1[C@@]24OO3 | µM | 11
CCN(CC)Cc1ccc(C(C)O[C@@H]2O[C@@H]3O[C@@]4(C)CC[C@H]5[C@H](C)CC[C@@H]([C@H]2C)[C@@]35OO4)cc1O (stereo partly drawn) | µM | 4.05

// switching to the query compound
`C[C@H]1[C@@H](Oc2ccc(C(=O)N[C@H](C(=O)O)C(C)(C)C)cc2)O[C@@H]2O[C@@]3(C)CC[C@H]4[C@H](C)CC[C@@H]1[C@@]24OO3` yielded IC50 of 0.8

* * *

System: HL-60
assay_explanation: HL-60 differentiation potency
Assay type: cell-based
condition_context: Homo sapiens
pEC50: −log10 of the molar value.
# label = Y if pEC50 >= 6 else N

Field: example entries. Status: answers known.
compound | assigned_category
C[C@H]1[C@@H](OC(C)(C)[C@H]2C[C@@H](C(=O)O)C2)O[C@@H]2O[C@@]3(C)CC[C@H]4[C@H](C)CC[C@@H]1[C@@]24OO3 | N
C[C@H]1[C@@H](O[C@H]2C[C@@H](C(=O)NC34C5C6C3C3C4C5C63C(=O)O)C2)O[C@@H]2O[C@@]3(C)CC[C@H]4[C@H](C)CC[C@@H]1[C@@]24OO3 (some centres unmarked) | N

[in] Does the compound `C[C@H]1[C@@H](OC[C@H]2CC[C@@H](C(=O)N[C@H](C(=O)O)C(C)(C)C)CC2)O[C@@H]2O[C@@]3(C)CC[C@H]4[C@H](C)CC[C@@H]1[C@@]24OO3` have recorded pEC50 that is 6 or more?
[out] Y

[in] Could you tell me if the measured pEC50 of C[C@H]1[C@H](OCC23[C@H]4[C@H]5[C@@H]2[C@H]2[C@@H]3[C@@H]4C52C(=O)O)O[C@@H]2O[C@@]3(C)CC[C@H]4[C@H](C)CC[C@@H]1[C@@]24OO3 (some centres unmarked) reaches 6 or more?
[out] Y

[in] Please tell me: is the compound C[C@H]1[C@@H](OC2CCc3cc(C(=O)O)ccc32)O[C@@H]2O[C@@]3(C)CC[C@H]4[C@H](C)CC[C@@H]1[C@@]24OO3 (some centres unmarked) at or over 6 in terms of pEC50?
[out] Y

* * *

Tested on: HL-60
assay_explanation: HL-60 differentiation potency
Format: cell-based
condition_context: Homo sapiens
Returns: string. Value is fulfilled if measured EC50 is below 90 nM, and not fulfilled if it is greater than or equal to it.

structure_smiles | assigned_category
C[C@H]1[C@@H](Oc2ccc(C(=O)N[C@H](C(=O)O)C(C)(C)C)cc2)O[C@@H]2O[C@@]3(C)CC[C@H]4[C@H](C)CC[C@@H]1[C@@]24OO3 | fulfilled
C[C@H]1[C@H](OCc2ccc(B(O)O)cc2)O[C@@H]2O[C@@]3(C)CC[C@H]4[C@H](C)CC[C@@H]1[C@@]24OO3 | not fulfilled
C[C@H]1[C@H](OCc2c(F)cc(C(=O)O)cc2F)O[C@@H]2O[C@@]3(C)CC[C@H]4[C@H](C)CC[C@@H]1[C@@]24OO3 | fulfilled
C[C@H]1[C@H](OCc2cc(C(=O)O)ccc2Cl)O[C@@H]2O[C@@]3(C)CC[C@H]4[C@H](C)CC[C@@H]1[C@@]24OO3 | fulfilled

[in] Criterion: EC50 strictly below 90 nM. Is it met by `C[C@H]1[C@@H](Oc2ccc(CC(=O)OC(C)(C)C)cc2)O[C@@H]2O[C@@]3(C)CC[C@H]4[C@H](C)CC[C@@H]1[C@@]24OO3` ?
[out] fulfilled

* * *

assay_explanation: in vitro
condition_context: human
reported_property: pIC50
Interpret pIC50 as the negative base-10 log of the concentration measured in mol/L.

Value of measured pIC50 for the entry `C[C@H]1[C@@H](OC[C@H]2CC[C@@H](C(=O)NCC3(C(=O)O)CCC3)CC2)O[C@@H]2O[C@@]3(C)CC[C@H]4[C@H](C)CC[C@@H]1[C@@]24OO3` : 4.75

Form: molecule = `C[C@H]1[C@@H](OC[C@H]2CC[C@@H](C(=O)N[C@H](C(=O)O)C(C)(C)C)CC2)O[C@@H]2O[C@@]3(C)CC[C@H]4[C@H](C)CC[C@@H]1[C@@]24OO3` ; pIC50 = 5.90

Kindly note the recorded pIC50 for `C[C@H]1[C@@H](Oc2ccc(OC(C)(C)C(=O)O)cc2)O[C@@H]2O[C@@]3(C)CC[C@H]4[C@H](C)CC[C@@H]1[C@@]24OO3` , which is 5.02

* * *

Test system: HL-60
assay_explanation: HL-60 differentiation potency
Type: cell-based
condition_context: Homo sapiens
reported_property: EC50 (nM)
Provide only the numeric value, understood in nM.

molecule | target_system | EC50 (nM)
C[C@H]1[C@@H](Oc2ccc(CCCCC(=O)O)cc2)O[C@@H]2O[C@@]3(C)CC[C@H]4[C@H](C)CC[C@@H]1[C@@]24OO3 | HL-60 | 113

// EC50 lookup, molecule = `C[C@H]1[C@@H](OCC23CCC(C(=O)O)(CC2)CC3)O[C@@H]2O[C@@]3(C)CC[C@H]4[C@H](C)CC[C@@H]1[C@@]24OO3` , result: 1180

Data point: `C[C@H]1[C@H](NCc2cnn(C)c2)O[C@@H]2O[C@@]3(C)CC[C@H]4[C@H](C)CC[C@@H]1[C@@]24OO3` ; EC50 = 1460

Record `C[C@H]1[C@@H](OCC(=O)N2CCC(C(=O)O)CC2)O[C@@H]2O[C@@]3(C)CC[C@H]4[C@H](C)CC[C@@H]1[C@@]24OO3` , field EC50: 6870

The recorded EC50 for `C[C@H]1[C@@H](OCc2ccc(S(N)(=O)=O)cc2)O[C@@H]2O[C@@]3(C)CC[C@H]4[C@H](C)CC[C@@H]1[C@@]24OO3` is 99

Reported EC50 for `C[C@H]1[C@@H](OCc2ccc(C(N)=O)cc2)O[C@@H]2O[C@@]3(C)CC[C@H]4[C@H](C)CC[C@@H]1[C@@]24OO3` was 300

EC50 reported for this molecule `Cc1cc(CC(=O)O)ccc1O[C@H]1O[C@@H]2O[C@@]3(C)CC[C@H]4[C@H](C)CC[C@@H]([C@H]1C)[C@@]24OO3` : 57.7

EC50 recorded for this molecule, `C[C@H]1[C@@H](OCC23CC(C(=O)O)(C2)C3)O[C@@H]2O[C@@]3(C)CC[C@H]4[C@H](C)CC[C@@H]1[C@@]24OO3` , is 7400

* * *

Item-by-item account of EC50
Tested on: HL-60
assay_explanation: HL-60 differentiation potency
Type: cell-based
condition_context: Homo sapiens

// returns EC50 for C[C@H]1[C@@H](OCC(C(=O)O)c2ccccc2)O[C@@H]2O[C@@]3(C)CC[C@H]4[C@H](C)CC[C@@H]1[C@@]24OO3 (stereo partly drawn) [Compound 172] with HL-60; value = 273 nM

Value (EC50, HL-60) for record C[C@H]1[C@H](N2CCC(C(=O)NC3CS(=O)(=O)C3)CC2)O[C@@H]2O[C@@]3(C)CC[C@H]4[C@H](C)CC[C@@H]1[C@@]24OO3 [Compound 65] = > 20000 nM

// EC50 (HL-60) for C[C@H]1[C@H](Oc2ccc(C(=O)C(=O)O)cc2)O[C@@H]2O[C@@]3(C)CC[C@H]4[C@H](C)CC[C@@H]1[C@@]24OO3 [Compound 129] = 3380 nM

Summary line: C[C@H]1[C@@H](OCc2ccc(C#N)cc2)O[C@@H]2O[C@@]3(C)CC[C@H]4[C@H](C)CC[C@@H]1[C@@]24OO3 [Compound 19] , HL-60, reported EC50 = 104 nM

Measured EC50 for this entry C[C@H]1[C@@H](OCc2ccc(C(=O)O)c(Cl)c2)O[C@@H]2O[C@@]3(C)CC[C@H]4[C@H](C)CC[C@@H]1[C@@]24OO3 [Compound 33] on HL-60: 343 nM

Item C[C@H]1[C@@H](OCCc2ccc(C(=O)O)cc2)O[C@@H]2O[C@@]3(C)CC[C@H]4[C@H](C)CC[C@@H]1[C@@]24OO3 [Compound 36] ; assay system HL-60; EC50 reported as 526 nM

* * *

assay_explanation: in vitro
condition_context: human
reported_property: pIC50
pIC50 is a log-scale quantity: -log10 of the concentration expressed in molar.

compound | pIC50
C[C@H]1[C@H](OCc2ccc(B(O)O)cc2)O[C@@H]2O[C@@]3(C)CC[C@H]4[C@H](C)CC[C@@H]1[C@@]24OO3 [Compound 176] | 6.40
C[C@H]1[C@@H](OCc2ccc(-c3nn[nH]n3)cc2)O[C@@H]2O[C@@]3(C)CC[C@H]4[C@H](C)CC[C@@H]1[C@@]24OO3 [Compound 38] | 4.88
C[C@H]1[C@H](OCc2ccc3c(c2)OC(F)(F)O3)O[C@@H]2O[C@@]3(C)CC[C@H]4[C@H](C)CC[C@@H]1[C@@]24OO3 [Compound 6] | 7.30
C[C@H]1[C@H](NCCc2ccccc2)O[C@@H]2O[C@@]3(C)CC[C@H]4[C@H](C)CC[C@@H]1[C@@]24OO3 [Compound 94] | 6.50

Quick note, pIC50 for C[C@H]1[C@@H](OC[C@]2(F)CC[C@H](C(=O)O)CC2)O[C@@H]2O[C@@]3(C)CC[C@H]4[C@H](C)CC[C@@H]1[C@@]24OO3 [Compound 140] landed at 4.72
